test_protocol: protein stability index of a GFP-peptide fusion (yeast GPS) (PSI 1-4); higher = more stable; sorted into four equal gates, so the index is relative within each strain
condition_parameters: doa10∆
The sequences listed here are annotated with their protein stability index.
Reply briefly: the number, and no unit.

Worked cases, protein stability index given:
| seq_text | protein stability index |
| --- | --- |
| LTKKYSFKIFVDVLVIS [RRP42] | 1.22 |
| GTLGEIFIRCNNVLYIR [SMX3] | 3.57 |
| DNLLLNLEQINEDLEDG [REC8] | 2.81 |

query: Give its protein stability index value. Item: GAELRSVCTEAGMFAIR [RPT1]
result: 2.61

query: Subsequent entry: DEHNELMRQALAIKDSK [RPO21]
result: 2.61

query: Consider next the sequence PKELVPSHEKLKESYSQ [CDC53] in the same way.
result: 3.13

query: What would you report for PQNEKPPAYALLGSCQT [RPC25] ?
result: 2.83

query: Also GSKMEAKNEDDPAHSLN [AAR2] ?
result: 2.34

query: Try this sequence too: NVGKPDQSIASGNTNGA [YOR098C/NUP1]
result: 3

query: Then this sequence: MAGKVLILTSHNMKAYY [BRR2]
result: 2.1

query: # iterate: FVKFLSKKGSLENNIRE [RPL10]
result: 3.32

query: Then NSASSAPTPAAPGASVP [SWI1] ?
result: 3.04

query: Another: AQKRVVSYMMPSLYRLL [SRB8]
result: 1.18

query: What about VAEIVQNVISLGSLTVE [RPC82] ?
result: 1.97

query: Try KPQEIKDILVKTGITKK [PRE9] next.
result: 3.39

query: Next: IAIIKDTSDIIVDPTAE [RRP46]
result: 1.86

query: Follow-up item: DKLLKRLKEKGSRVLIF [ISW2]
result: 1.35

query: Another sequence to check: GSEVRLRDDTLPKAWIS [COR1]
result: 2.49

query: Another sequence to check: LLGKDNEDDALIYGISD [AAR2]
result: 3.22

query: Another: ENNDDALDLDLDLFDPD [MED4]
result: 2.89

query: Also IDEDKLYPSFKPIYKDT [SSN2] , if possible.
result: 2.99

query: PEIPLVVSTDLESIQKT [RPL4A] ?
result: 2.96

query: Subsequent entry: FLRPTYPDLCSIYDKWT [RPN1]
result: 2.83

query: Next entry: RESRIVSTEGNVPQTLA [RPL21A]
result: 2.13

query: Please do the same for VSQQPLSRGYTCPGLSL [ECM29] as well.
result: 3.02

====

test_protocol: protein stability index of a GFP-peptide fusion (yeast GPS) (PSI 1-4); higher = more stable; sorted into four equal gates, so the index is relative within each strain
condition_parameters: ubr1∆
Outcome: Y for protein stability index of at least 3; N for anything lower.

| seq_text | cat |
| --- | --- |
| LQLASLQQKQRDLILKK [SMC3] | N |
| VSLGTSIMAVTFKDGVI [PRE3] | Y |
| LKSPVLSKLCVPVANQF [QCR7] | N |
| IQMNNSLQNNLQNNINN [SNF11] | Y |
| WHIEETGEWFSSYEEFL [ITC1] | N |

query: In plain terms: is recorded protein stability index at least 3 for ENKTKKDNDKNLKFLKN [SRB4] ?
result: Y

query: Then what about the sequence VNKYGLRADKLYEKLKQ [ISW2] ?
result: N

query: Again, but for DLMDEELRKHAQKRVSN [SKI6]
result: Y

query: Also need KGGSLYGLGLIYAGFGR [RPN2] , thanks.
result: N

query: Now consider QYSLERNSPFWWTNSHH [PRP8] and answer again.
result: N

query: And for AHVFVGTCNGDITTSIM [RPN1] ?
result: N

query: Would you mind doing LSVMCGCGTVKRFNIGA [RPR2] as well?
result: N

query: What do you get for WNLNATKPNVLNDPSLK [SIN4] ?
result: Y

query: What do you have for FKRVSQTFEAKLHFKDT [NUT1] ?
result: Y

query: Now consider CTSLMDIIVAIKIFELK [IRR1] and answer again.
result: N

query: Can you handle SEVGNCSGSGMGGVSAL [FAS2] next?
result: Y

====

test_protocol: protein stability index of a GFP-peptide fusion (yeast GPS) (PSI 1-4); higher = more stable; sorted into four equal gates, so the index is relative within each strain
condition_parameters: san1∆
reported_endpoint: protein stability index

These solved cases illustrate the format of a correct answer.
| seq_text | test_value |
| --- | --- |
| MRSKLEKLTLVTLSEIY [CSN9] | 1.79 |
| KNRRRIHGELKTYKEGI [SMC1] | 3.17 |
| DSFENYFNQLKPYYFSN [RPN12] | 2.97 |
| APKWYPSEDVAAPKKTR [RPL6B] | 1.87 |
| ETPEGQACGLVKNLSLM [RPB2] | 3.01 |

query: Query (sequence): KALVLFVPVPALSAYHK [RPS7B] ; field requested: protein stability index
result: 2.12

query: For MDEMDNVIRSLEQEYRL [RMP1] then?
result: 1.71

query: Cool, now DSSTTSSNSQQSTPQPD [ITC1]
result: 2.69

query: Cool, now PINLKFLQGESPFSITF [YMR129W/POM152]
result: 2.63

query: Please do the same for RTLLTEEIEPKLEKLRN [SMC2] as well.
result: 3.18

query: Moving on to GNIVKEFENKFQNSYKP [YMR129W/POM152]
result: 3.37

query: Next sequence: ADITDGNNTELTKTTVN [YCG1]
result: 3.33

query: Next up: LELPLCPYCYKKRREYF [SIR2]
result: 1.95

query: Let us now turn to PSPKKVAIDQDKITLHD [SIR4]
result: 2.27

query: SELLARDIFQEDEENSD [RGR1] , same question.
result: 3.02

query: SSLNLEDTPANDSSATR [RPB8] ?
result: 2.68

query: And for DQFITSLKCTDPYELKG [ITC1] ?
result: 2.78

====

test_protocol: protein stability index of a GFP-peptide fusion (yeast GPS) (PSI 1-4); higher = more stable; sorted into four equal gates, so the index is relative within each strain
condition_parameters: san1∆
Examples of sequences with documented protein stability index follow.
Respond numerically, and do not add a unit to the figure.

| seq_text | protein stability index |
| --- | --- |
| REKYNMKGPAALWDVQF [ARP9] | 3.49 |
| DDELMNWRRLSGRNIHL [SSN2] | 3.01 |
| NHWRQNKGRAVYINPSG [BRR2] | 2.85 |
| KKMDDYIHRIGRTGRAA [PRP28] | 3.27 |
| LSGNPLTSVTNDICSVE [SIR4] | 3.09 |

query: Fill in the blank: the reported protein stability index of YDSRGVGEMKLLKKKDD [YLR335W/NUP2] is ____.
result: 2.52

query: Repeat with YLKDNITLLTRQRELLI [GRR1]
result: 1.84

====

test_protocol: protein stability index of a GFP-peptide fusion (yeast GPS) (PSI 1-4); higher = more stable; sorted into four equal gates, so the index is relative within each strain
condition_parameters: doa10∆
reported_endpoint: protein stability index
// no unit, no text: just the number

Worked examples, 5 sequences total:
| seq_text | reported_endpoint | test_value |
| --- | --- | --- |
| KMIEKIEKMSTIVQLCK [YIL149C/MLP2] | protein stability index | 2.65 |
| TPDPSELAAKEEPAKEE [FAS2] | protein stability index | 2.72 |
| GSNNGFGNKPAGSTGFS [YGR119C/NUP57] | protein stability index | 1.65 |
| PPPPPPSNFEINAEEIV [PRP8] | protein stability index | 2.6 |
| ERVRLRPEQLSNIIHDE [SNF6] | protein stability index | 1.73 |

query: Find the recorded protein stability index belonging to LLIHRKGLTYLHLDYNF [PRP8] and report it.
result: 1.77

query: Okay, and SLRRIRDEMSKAELPQW [MED8] ?
result: 1.98

query: Repeat with TRIFQALPRKLRRRTAS [POP1]
result: 2.33

====

test_protocol: protein stability index of a GFP-peptide fusion (yeast GPS) (PSI 1-4); higher = more stable; sorted into four equal gates, so the index is relative within each strain
condition_parameters: san1∆
A collection of sequences and their measured protein stability index
Number, no unit, nothing else.

Guide cases for protein stability index, answers given:
| seq_text | protein stability index |
| --- | --- |
| DRQLHEISTSKKNNLEF [RPN14] | 2.93 |
| TSNNETNNGNDDNETEN [GRR1] | 3.14 |
| EIDDFNDIDDLDMELAE [SEC65] | 2.89 |
| LTSGLLYSYLIKENFFE [YJL039C/NUP192] | 1.71 |
| GVTSLIKNLGLPSDRCS [RPP1] | 1.5 |
| ILNAKYTKETYQSRGID [RPN6] | 2.97 |

query: Which protein stability index reading was recorded for the sequence KIYKLENGERKLYDAKR [YMR129W/POM152] ?
result: 3.21

query: What about this sequence? EFFHLQHYLDTATAPRL [QCR6]
result: 2.72

query: Record: SKILSQAPSELELQVAK [RPS7B]
result: 2.95

query: And the next one, KTFNKIQSQVFESLYNS [BRR2] ?
result: 1.25

query: Let us now turn to DTSYKIDGKTVSYKDYS [SMC1]
result: 2.58

query: Repeat for the following sequence: KIKAILESVGIEIEDEK [RPP2A]
result: 2.8

query: Could you do the same for NVAKNMKTPSLTVYLEP [RPO21] , please?
result: 2.94

query: Param item: ELEDVAVKKLYAIIINY [YCS4]
result: 1.59

query: What do we get for DVKTAEEASQLIEYMEN [NUT1] ?
result: 3.05

query: Would you mind doing TDLESKSRMINFLDAPG [SNU114] as well?
result: 2.71
